- System: c-KIT V560G/D816V
- measurementDescription: Proliferation inhibitory activity on Ba/F3 cell (CellTiter-Glo, 72 hours), c-KIT V560G/D816V
- Type: cell-based
- assayConditions: Mus musculus, BaF3, c-KIT V560G/D816V cells, read-out: Cell (nM) c-KIT V560G/D816V (GI50 class)
In this section, each of the compounds is paired with its reported GI50.
measurementName: GI50

>>> print(df.to_string())
                                    compound                tgt  measurementname       obsvalue
 0  CCN1CC[C@H](COc2cc3ncnc(-c4ccc(NC(=O)Cc5ccc(C(F)(F)F)cc5)cc4)c3cc2OC)C1  c-KIT V560G/D816V             GI50       ≤ 200 nM
 1  CCN1CCC(COc2cc3ncnc(-c4ccc(NC(=O)Cc5ccc(Cl)c(C(F)(F)F)c5)cc4)c3cc2OC)CC1  c-KIT V560G/D816V             GI50       ≤ 200 nM
 2  COc1cc2ncnc(-c3ccc(NC(=O)Cc4ccc(C(F)(F)F)cc4)cc3)c2cc1OCC1CCCNC1 (centres unmarked)  c-KIT V560G/D816V             GI50  200 to 500 nM
 3  COc1cc2c(-c3ccc(NC(=O)Cc4ccc(Cl)c(C(F)(F)F)c4)cc3)ncnc2cc1OCCCN1CCN(C)CC1  c-KIT V560G/D816V             GI50       ≤ 200 nM
 4  CCN1CC(Oc2cc3c(-c4ccc(NC(=O)Cc5ccc(C(F)(F)F)cc5)cc4)ncnc3cc2OC)C1  c-KIT V560G/D816V             GI50  200 to 500 nM
 5  COc1cc2c(-c3ccc(NC(=O)Cc4ccc(C(F)(F)F)cc4)cc3)ncnc2cc1OCC1CCNCC1  c-KIT V560G/D816V             GI50       ≤ 200 nM
 6  COc1ccc(CC(=O)Nc2ccc(-c3ncnc4cc(OCCCN5CCN(C)CC5)c(OC)cc34)cc2)cn1  c-KIT V560G/D816V             GI50       ≤ 200 nM
 7  CCN(CC)CCOc1cc2ncnc(-c3ccc(NC(=O)Cc4ccc(C(F)(F)F)cc4)cc3)c2cc1OC  c-KIT V560G/D816V             GI50       ≤ 200 nM
 8  COc1ccc(CC(=O)Nc2ccc(-c3ncnc4cc(OCC5CCN(C)CC5)c(OC)cc34)cc2)cn1  c-KIT V560G/D816V             GI50       ≤ 200 nM
 9  COc1cc2c(-c3ccc(NC(=O)Cc4ccsc4)cc3)ncnc2cc1OCCCN1CCN(C)CC1  c-KIT V560G/D816V             GI50       ≤ 200 nM
10  COCCOc1cc2ncnc(-c3ccc(NC(=O)Cc4ccc(C(F)(F)F)cc4)cc3)c2cc1OCCOC  c-KIT V560G/D816V             GI50       ≤ 200 nM
11  COc1cc2ncnc(-c3ccc(NC(=O)Cc4ccc(C(F)(F)F)cc4)cc3)c2cc1OC(=O)N1CCN(C)CC1  c-KIT V560G/D816V             GI50       > 500 nM
12  COc1cc2c(-c3ccc(NC(=O)Cn4cc(C(C)C)nn4)cc3)ncnc2cc1OCC1CCN(C(C)C)CC1  c-KIT V560G/D816V             GI50       > 500 nM
13  COCCN1CCC(COc2cc3ncnc(-c4ccc(NC(=O)C5(c6ccc(F)cc6)CC5)cc4)c3cc2OC)CC1  c-KIT V560G/D816V             GI50  200 to 500 nM
14  COCCN1CCC(COc2cc3ncnc(-c4ccc(NC(=O)Cc5ccc(Cl)nc5)cc4)c3cc2OC)CC1  c-KIT V560G/D816V             GI50       ≤ 200 nM
15  COc1cc2ncnc(-c3ccc(NC(=O)Cc4ccc(C(F)(F)F)cc4)cc3)c2cc1O[C@H]1CCCO1  c-KIT V560G/D816V             GI50  200 to 500 nM
16  COc1cc2ncnc(-c3ccc(NC(=O)Cc4ccc(C(F)(F)F)cc4)cc3)c2cc1OCCCN1CCCC1  c-KIT V560G/D816V             GI50       ≤ 200 nM
17  COc1cc2c(-c3ccc(NC(=O)Cc4ccc(Cl)c(C(F)(F)F)c4)cc3)ncnc2cc1OCC1CCNCC1  c-KIT V560G/D816V             GI50  200 to 500 nM
18  COCCN1CCC(COc2cc3ncnc(-c4ccc(NC(=O)Cc5ccc(C(F)(F)F)cc5)cc4)c3cc2OC)CC1  c-KIT V560G/D816V             GI50       ≤ 200 nM
19  COc1ccc(CN2CC(Oc3cc4ncnc(-c5ccc(NC(=O)Cc6ccc(C(F)(F)F)cc6)cc5)c4cc3OC)C2)cc1  c-KIT V560G/D816V             GI50       > 500 nM
20  COc1cc2ncnc(-c3ccc(NC(=O)Cc4ccc(C(F)(F)F)cc4)cc3)c2cc1OCCCN1CCN(C)CC1  c-KIT V560G/D816V             GI50       ≤ 200 nM
21  COCCN1CCC(COc2cc3ncnc(-c4ccc(NC(=O)Cn5cc(C(C)C)nn5)cc4)c3cc2OC)CC1  c-KIT V560G/D816V             GI50       > 500 nM
22  CCN1CCCC(COc2cc3ncnc(-c4ccc(NC(=O)Cc5ccc(OC)nc5)cc4)c3cc2OC)C1 (centres unmarked)  c-KIT V560G/D816V             GI50       ≤ 200 nM
